# System: KERtr cells (Human skin keratinocyte)
# Assay Summary: Keratinocyte proliferation assay
# Assay type: cell-based
# Particulars: Homo sapiens, Keratinocyte, 72 h, BrdU incorporation, read-out: Kera. Prolif. IC50
Values of IC50 strictly less than 40 nM map to y, and values of at least 40 nM map to n.

>>> label_class("CCC(CC)(c1ccc(OC(C)C(O)C(C)(C)C)c(C)c1)c1ccc(C(=O)O)c(C)c1 (single isomer, unassigned) [Ex. 11]")
"n"
>>> label_class("CCC(CC)(c1ccc(OCC(O)C(C)(C)C)c(C)c1)c1ccc(C(=O)Nc2nnn[nH]2)c(C)c1 (single isomer, unassigned) [Ex. 12a]")
"y"
>>> label_class("CCC(CC)(c1ccc(-c2nnn[nH]2)cc1)c1ccc(OCC(O)C(C)(C)C)c(C)c1 (single isomer, unassigned)")
"y"
>>> label_class("CCC(CC)(c1ccc(OC(C)C(O)C(C)(C)C)c(C)c1)c1ccc(C(=O)O)c(C)c1 (racemic) [Ex. 28]")
"n"
>>> label_class("CCC(CC)(c1ccc(OC(C)C(O)C(C)(C)C)c(C)c1)c1ccc(C(=O)N[C@@H](C)C(=O)O)c(C)c1 (some centres unmarked)")
"n"
>>> label_class("CCC(CC)(c1ccc(OCC(O)C(C)(C)C)c(C)c1)c1ccc(C(=O)N[C@H](C)C(=O)O)c(C)c1 (some centres unmarked)")
"y"
>>> label_class("CCC(CC)(c1ccc(OCC(O)C(C)(C)C)c(C)c1)c1ccc(C(=O)NCCS(C)(=O)=O)c(C)c1 (single isomer, unassigned) [Ex. 15A]")
"n"
>>> label_class("CCC(CC)(c1ccc(OCC(O)C(C)(C)C)c(Cl)c1)c1ccc(C(=O)O)c(Cl)c1 (single isomer, unassigned)")
"n"
>>> label_class("CCC(CC)(c1ccc(C(=O)O)cc1)c1ccc(OCC(=O)C(C)(C)C)c(C)c1")
"n"
>>> label_class("CCC(CC)(c1ccc(OCC(O)C(C)(C)C)c(C)c1)c1ccc(C(=O)NC(C)(C)C(=O)O)c(C)c1 (single isomer, unassigned) [Ex. 20B]")
"y"

###

# Tested on: female DBF mice
# Assay Summary: Mouse hypercalcemia assay
# Type: in vivo
# Particulars: orally via gavage for 6 days; serum ionized calcium 6 hours after last dosing
Result Type: Mouse Hypercal

>>> observed_value("CCC(CC)(c1ccc(C(=O)O)cc1)c1ccc(OCC(O)C(C)(C)C)c(Cl)c1 (single isomer, unassigned) [Ex. 36]")
">300 µg/kg/day"
>>> observed_value("CCC(CC)(c1ccc(-c2nnn[nH]2)cc1)c1ccc(OCC(O)C(C)(C)C)c(C)c1 (single isomer, unassigned) [Ex. 44]")
"<300 µg/kg/day"
>>> observed_value("CCC(CC)(c1ccc(OCC(=O)C(C)(C)C)c(C)c1)c1ccc(C(=O)NCCS(C)(=O)=O)c(C)c1 [Ex. 16]")
">5000 µg/kg/day"
>>> observed_value("CCC(CC)(c1ccc(OCC(=O)C(C)(C)C)c(C)c1)c1ccc(C(=O)O)c(C)c1 [Ex. 17]")
">3000 µg/kg/day"
>>> observed_value("CCC(CC)(c1ccc(OCC(O)C(C)(C)C)c(C)c1)c1ccc(C(=O)NCC(=O)O)c(C)c1 (single isomer, unassigned) [Ex. 25A]")
"<300 µg/kg/day"
>>> observed_value("CCC(CC)(c1ccc(COCC(=O)O)c(C)c1)c1ccc(OCC(O)C(C)(C)C)c(C)c1 (single isomer, unassigned) [Ex. 33]")
"<300 µg/kg/day"
>>> observed_value("CCC(CC)(c1ccc(OC(C)C(O)C(C)(C)C)c(C)c1)c1ccc(C(=O)N(C)CC(=O)O)c(C)c1 (single isomer, unassigned) [Ex. 53]")
">3000 µg/kg/day"
